Tested on: P12-Ichikawa
Test: cell viability relative to DMSO control; higher = less cytotoxic
Settings: RPMI 5 mM glucose + 10% FBS; 48 h; 0.0632 µM
MEASURE: cell viability (%)
Give bare numbers, in %.

For orientation, consider the following solved cases.
{"SMILES_RECORD": "CN(C)C1=CC=C(C=C1)C(C2=CC=C(C=C2)N(C)C)=C/3\\C=C/C(/C=C3)=[N+](C)C", "MEASURE": "cell viability", "MEAS_VALUE": 94.9}
{"SMILES_RECORD": "CN1CCN(c2ccc([N+](=O)[O-])c3no[n+]([O-])c23)CC1", "MEASURE": "cell viability", "MEAS_VALUE": 94.7}
{"SMILES_RECORD": "CC1(C)O[C@@H]2C[C@H]3[C@@H]4CCC5=CC(=O)C=C[C@]5(C)[C@H]4[C@@H](O)C[C@]3(C)[C@]2(C(=O)CO)O1", "MEASURE": "cell viability", "MEAS_VALUE": 82.4}

Hey, quick one: what's cell viability for each of these?
1. CN1\C(=C(\O)C2=CC=CC=C2[S+]1([O-])=O)C(=O)NC3=NC=C(C)S3
2. CN1CCCN=C1/C=C/c1cccs1.O=C(O)c1cc2ccccc2c(Cc2c(O)c(C(=O)O)cc3ccccc23)c1O
3. CNc1nccc(-c2cccnc2Oc2cc(C(=O)Nc3cccc(C(F)(F)F)c3)ccc2C)n1

[93.8, 114, 119]

Hey, quick one: what's cell viability for each of these?
1. COC1=CC=C(C=C1)C/2=C/OC3=C(C(=CC(=C3)O)O)C2=O
2. C[C@@H]\1CC(=O)N\N=C1C2=CC=C(NN=C(C#N)C#N)C=C2

1: 120; 2: 93.9

====

Tested on: P12-Ichikawa
Assay: cell viability relative to DMSO control; higher = less cytotoxic
Conditions: HPLM + 10% dialyzed FBS; 48 h; 0.569 µM
MEASURE: cell viability (%)
Give bare numbers, in %.

For orientation, consider the following solved cases.
{"SMILES_RECORD": "O=C(c1ccc(Nc2nccc(-c3cc4ccccc4s3)n2)cc1)N1CCC(N2CCCC2)CC1", "TARGET_UNDER_TEST": "P12-Ichikawa", "UNIT_INFO": "%", "cell viability": 103}
{"SMILES_RECORD": "N=C(NCCCCCCNC(=N)NC(=N)Nc1ccc(Cl)cc1)NC(=N)Nc1ccc(Cl)cc1", "TARGET_UNDER_TEST": "P12-Ichikawa", "UNIT_INFO": "%", "cell viability": 95.2}
{"SMILES_RECORD": "CN1C[C@H]2c3ccccc3Oc3ccc(Cl)cc3[C@@H]2C1", "TARGET_UNDER_TEST": "P12-Ichikawa", "UNIT_INFO": "%", "cell viability": 92.5}

Hey, quick one: what's cell viability for each of these?
1. CC(C)C[C@H](NC(=O)[C@H](CCc1ccccc1)NC(=O)CN1CCOCC1)C(=O)N[C@@H](Cc1ccccc1)C(=O)N[C@@H](CC(C)C)C(=O)[C@@]1(C)CO1
2. Cn1cnc2c1c(=O)[nH]c(=O)n2C
3. CC/1=C(/N2[C@H](SC1)[C@H](NC(=O)[C@H](N)\C3=C\C\C=C/C3)C2=O)C(O)=O
4. C[C@@]12C[C@@]3(O)O[C@@H](O1)[C@]1(COC(=O)c4ccccc4)[C@H]3C[C@@]12O[C@@H]1O[C@H](CO)[C@@H](O)[C@H](O)[C@H]1O

1: 5.35; 2: 112; 3: 111; 4: 103

Dear colleague, I am looking for the recorded cell viability of the following molecule: `COc1cc2c(cc1OC)CC(=O)N(CCCN(C)C[C@H]1Cc3cc(OC)c(OC)cc31)CC2.Cl`
113
